- System: Escherichia coli TOP10;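 further: peptides expressed intracellularly from a pBAD plasmid library in pooled LB shake-flask culture, induced with 0.3% L-arabinose, DNA abundance read by NGS, three biological replicates, DESeq2 with apeglm shrinkage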
- method.summary: shrunken log2 fold change of peptide-encoding DNA abundance (4.5 h post-induction vs induction); higher = less antimicrobial activity (less host growth inhibition)
- assay.setup: time post-induction: 4.5 h; library: site-saturation at positions 5, 18, 19, 20
Reported shrunken log2 fold change by item:

>  <monomer.sequence>
RRIRSRPPRLPRPRPRPNAFPRP

>  <shrunken log2 fold change>
-0.0168

$$$$
>  <monomer.sequence>
RRIRARPPRLPRPRPRPFGEPRP

>  <shrunken log2 fold change>
0.15

$$$$
>  <monomer.sequence>
RRIRQRPPRLPRPRPRPFYMPRP

>  <shrunken log2 fold change>
-1.52

$$$$
>  <monomer.sequence>
RRIRARPPRLPRPRPRPECNPRP

>  <shrunken log2 fold change>
0.807

$$$$
>  <monomer.sequence>
RRIRSRPPRLPRPRPRPVPEPRP

>  <shrunken log2 fold change>
0.563

$$$$
>  <monomer.sequence>
RRIRNRPPRLPRPRPRPIEDPRP

>  <shrunken log2 fold change>
-0.0858

$$$$
>  <monomer.sequence>
RRIRERPPRLPRPRPRPFYSPRP

>  <shrunken log2 fold change>
-0.795

$$$$
>  <monomer.sequence>
RRIRDRPPRLPRPRPRPIWFPRP

>  <shrunken log2 fold change>
-0.192

$$$$
>  <monomer.sequence>
RRIRHRPPRLPRPRPRPAWCPRP

>  <shrunken log2 fold change>
0.081

$$$$
>  <monomer.sequence>
RRIRVRPPRLPRPRPRPQCVPRP

>  <shrunken log2 fold change>
-0.218

$$$$
>  <monomer.sequence>
RRIRFRPPRLPRPRPRPYCHPRP

>  <shrunken log2 fold change>
-0.687

$$$$
>  <monomer.sequence>
RRIRHRPPRLPRPRPRPKKMPRP

>  <shrunken log2 fold change>
-0.132

$$$$
>  <monomer.sequence>
RRIRYRPPRLPRPRPRPMRAPRP

>  <shrunken log2 fold change>
0.605

$$$$
>  <monomer.sequence>
RRIRFRPPRLPRPRPRPMPIPRP

>  <shrunken log2 fold change>
0.0193

$$$$
>  <monomer.sequence>
RRIRWRPPRLPRPRPRPWETPRP

>  <shrunken log2 fold change>
-0.01

$$$$

Provenance of the data: the supplement of paper PMC9112550
